I'd be grateful if you could share measured protein stability index for these entries.
B1: USP39 (parent)
chain: TLSEAYIQIWKRRDNDETNQQGA

Variants of: B1
experiment-notes: protein stability index of a GFP-peptide fusion (GPS, HEK-293T) (PSI 1-6); higher = more stable;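 note: lentivirally expressed fusions sorted by FACS into six bins by GFP to DsRed ratio, PSI derived from sequencing read proportions per bin multiplied by bin number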
condition-notes: c terminus: native
// return a plain number; no unit text

State the recorded protein stability index for this entry: `W10I`
2.72

State the recorded protein stability index for this entry: `N19S`
2.9

State the recorded protein stability index for this entry: `D16G`
1.65

State the recorded protein stability index for this entry: `A23I`
3.76

State the recorded protein stability index for this entry: `A23F`
3.71

State the recorded protein stability index for this entry: `A23T`
3.73

State the recorded protein stability index for this entry: `L2G`
3.77

State the recorded protein stability index for this entry: `T18I`
3.17

State the recorded protein stability index for this entry: `E4G`
2.23

State the recorded protein stability index for this entry: `N19T`
3.51

State the recorded protein stability index for this entry: `K11A`
1.74

State the recorded protein stability index for this entry: `E17P`
2.4

State the recorded protein stability index for this entry: `W10Q`
3.46

State the recorded protein stability index for this entry: `N15S`
1.88

State the recorded protein stability index for this entry: `R13I`
2.52

State the recorded protein stability index for this entry: `I7Q`
3.2

State the recorded protein stability index for this entry: `W10T`
2.92

State the recorded protein stability index for this entry: `R12M`
2.1

State the recorded protein stability index for this entry: `I9W`
1.73

State the recorded protein stability index for this entry: `N15K`
2.51

State the recorded protein stability index for this entry: `E4Y`
2.04

State the recorded protein stability index for this entry: `T18R`
2.54

State the recorded protein stability index for this entry: `A23C`
3.53

State the recorded protein stability index for this entry: `R13H`
2.43

State the recorded protein stability index for this entry: `N19P`
1.45

State the recorded protein stability index for this entry: `D14T`
2.39

State the recorded protein stability index for this entry: `W10N`
2.85

State the recorded protein stability index for this entry: `N15G`
2.68

State the recorded protein stability index for this entry: `K11T`
3.14

State the recorded protein stability index for this entry: `E4S`
1.76

State the recorded protein stability index for this entry: `A5Y`
2.57

State the recorded protein stability index for this entry: `W10P`
3.41

State the recorded protein stability index for this entry: `E17V`
1.5

State the recorded protein stability index for this entry: `Q8M`
1.59

State the recorded protein stability index for this entry: `Q20H`
1.58

State the recorded protein stability index for this entry: `G22V`
3.41

State the recorded protein stability index for this entry: `E4L`
2.49

State the recorded protein stability index for this entry: `N19F`
2.99

State the recorded protein stability index for this entry: `I9K`
3.13

State the recorded protein stability index for this entry: `Q21V`
1.96

State the recorded protein stability index for this entry: `Q21N`
3.81

State the recorded protein stability index for this entry: `Q8R`
3.93

State the recorded protein stability index for this entry: `Y6L`
2.2

State the recorded protein stability index for this entry: `Q8S`
2.48

State the recorded protein stability index for this entry: `K11Q`
1.78

State the recorded protein stability index for this entry: `Q21P`
4.25

State the recorded protein stability index for this entry: `I7G`
2.56

State the recorded protein stability index for this entry: `A5W`
2.18

State the recorded protein stability index for this entry: `D14G`
2.06

State the recorded protein stability index for this entry: `K11P`
1.72

State the recorded protein stability index for this entry: `G22Y`
3.04
